- assay.explanation: Clearance in Han Wistar rat at 1 umol/kg, iv
- Type: ADME, organism-based
- condition.label: in vivo

smiles.string: COCCOc1cc(F)c2c(Nc3ccc(NC(=O)Cn4cc(C(C)C)nn4)cc3)ncnc2c1
clearance: 8 mL/min/kg

----------
- System: Mast/stem cell growth factor receptor Kit (Homo sapiens), P10721 [UNDEFINED MUTATION]
- Sequence (P10721 whole entry, looked up, change not shown): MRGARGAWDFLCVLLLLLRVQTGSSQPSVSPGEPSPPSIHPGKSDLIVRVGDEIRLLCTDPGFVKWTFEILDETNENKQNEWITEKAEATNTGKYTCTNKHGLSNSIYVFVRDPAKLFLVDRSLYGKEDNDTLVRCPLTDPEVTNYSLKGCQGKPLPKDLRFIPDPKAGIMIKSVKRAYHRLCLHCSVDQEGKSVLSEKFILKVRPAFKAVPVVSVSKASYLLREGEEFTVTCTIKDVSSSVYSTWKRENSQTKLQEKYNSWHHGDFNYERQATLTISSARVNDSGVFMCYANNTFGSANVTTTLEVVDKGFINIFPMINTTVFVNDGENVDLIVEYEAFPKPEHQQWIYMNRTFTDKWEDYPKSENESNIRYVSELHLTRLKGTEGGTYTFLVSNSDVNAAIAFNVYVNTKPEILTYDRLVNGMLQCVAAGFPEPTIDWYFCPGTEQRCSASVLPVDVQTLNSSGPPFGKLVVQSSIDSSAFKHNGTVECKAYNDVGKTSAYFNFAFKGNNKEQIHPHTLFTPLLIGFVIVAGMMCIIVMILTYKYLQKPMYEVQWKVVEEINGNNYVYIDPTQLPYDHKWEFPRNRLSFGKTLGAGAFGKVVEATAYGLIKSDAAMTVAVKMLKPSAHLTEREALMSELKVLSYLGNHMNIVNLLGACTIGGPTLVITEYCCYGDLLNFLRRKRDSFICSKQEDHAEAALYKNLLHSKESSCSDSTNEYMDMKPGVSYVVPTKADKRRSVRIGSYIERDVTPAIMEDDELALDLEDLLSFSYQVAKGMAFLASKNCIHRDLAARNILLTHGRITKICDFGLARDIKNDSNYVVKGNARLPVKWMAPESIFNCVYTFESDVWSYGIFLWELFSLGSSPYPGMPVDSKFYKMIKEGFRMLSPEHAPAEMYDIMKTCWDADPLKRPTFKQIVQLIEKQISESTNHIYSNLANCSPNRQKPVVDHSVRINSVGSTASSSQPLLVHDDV
The label is true for GI50 below 0.04 µM and false for GI50 equal to or exceeding 0.04 µM.

smiles.string: COc1cc2ncnc(Oc3ccc(NC(=O)Cc4cn(C(C)C)nn4)cc3)c2cc1OC
label.class: false
//
smiles.string: COc1cc2ncnc(Oc3ccc(NC(=O)Cn4ccc(C(C)C)n4)cc3)c2cc1OC
label.class: true
//
smiles.string: COc1cc2ncnc(Oc3ccc(NC(=O)Cn4cnc(C(C)C)n4)cc3)c2cc1OC
label.class: false
//
smiles.string: COc1cc2ncnc(Oc3ccc(NC(=O)Cn4cc(C(C)C)cn4)cc3)c2cc1OC
label.class: true
//
smiles.string: COc1cc(OC)c2c(Oc3ccc(NC(=O)Cn4cc(C(C)C)nn4)cc3)ncnc2c1
label.class: false
//
smiles.string: COc1cc2ncnc(Oc3ccc(NC(=O)Cc4cnn(C(F)F)c4)cc3)c2cc1OC
label.class: false
//
smiles.string: COc1cc2ncnc(Oc3ccc(CC(=O)Nc4cnn(C(C)C)c4)cc3)c2cc1OC
label.class: false
//
smiles.string: COc1cc2nccc(Oc3cnc(CC(=O)Nc4cnn(C(C)C)c4)c(OC)c3)c2cc1OC
label.class: true
//
smiles.string: COc1cc(Oc2ncnc3cc(OC)c(OC)cc23)ccc1CC(=O)Nc1cnn(C(C)C)c1
label.class: true
